Cited source: patent US5030760A

Tested on: corn
test: Test Example 1, foliar treatment, phytotoxicity to corn; also: ranges in brackets are in %
Type: in vivo
condition.notes: 5 g/are, 3 weeks
Listed here: items and their measured Phytotoxicity, Corn.

{"compound": "CCCCOc1cc(N2C(=O)C3=C(CCCC3)C2=O)c(F)cc1Cl", "Phytotoxicity, Corn": "0 (100)"}
{"compound": "CCOc1cc(N2C(=O)C3=C(CCCC3)C2=O)c(F)cc1Cl", "Phytotoxicity, Corn": "1 (90-99)"}
{"compound": "CCOc1cc(N2C(=O)C3=C(CCCC3)C2=O)c(F)cc1Br", "Phytotoxicity, Corn": "1 (90-99)"}
{"compound": "CCCOc1cc(N2C(=O)C3=C(CCCC3)C2=O)c(F)cc1Br", "Phytotoxicity, Corn": "1 (90-99)"}
{"compound": "COc1cc(N2C(=O)C3=C(CCCC3)C2=O)c(F)cc1Cl", "Phytotoxicity, Corn": "1 (90-99)"}
{"compound": "CCC(C)Oc1cc(N2C(=O)C3=C(CCCC3)C2=O)c(F)cc1Cl (stereo not drawn)", "Phytotoxicity, Corn": "1 (90-99)"}
{"compound": "COc1cc(N2C(=O)C3=C(CCCC3)C2=O)c(F)cc1Br", "Phytotoxicity, Corn": "1 (90-99)"}
{"compound": "CCC(C)Oc1cc(N2C(=O)C3=C(CCCC3)C2=O)c(F)cc1Br (stereo not drawn)", "Phytotoxicity, Corn": "1 (90-99)"}
{"compound": "O=C1C2=C(CCCC2)C(=O)N1c1ccc(Cl)cc1F [A, reference compound]", "Phytotoxicity, Corn": "2 (80-89)"}
{"compound": "CCCOc1cc(N2C(=O)C3=C(CCCC3)C2=O)c(F)cc1Cl", "Phytotoxicity, Corn": "1 (90-99)"}
{"compound": "CC(C)COc1cc(N2C(=O)C3=C(CCCC3)C2=O)c(F)cc1Cl", "Phytotoxicity, Corn": "0 (100)"}
{"compound": "CC(C)Oc1cc(N2C(=O)C3=C(CCCC3)C2=O)c(Cl)cc1Cl [B, reference compound]", "Phytotoxicity, Corn": "1 (90-99)"}
